System: NCI-H292 lung cancer cells
Assay: FDA drug screening, complete media vs cholesterol-free media with simvastatin (TABLE 2)
Assay type: cell-based, human
Conditions: NCI-H292 cells, FDA drug library screen, cholesterol-free media with simvastatin 0.04 μM
Counter-ions that a name gives are not always drawn.
PROPERTY_MEASURED: Cholesterol-free media + simvastatin (0.04 μM)
A bare number is all that is needed in reply.

Reference set, count: 3
MOLECULE: Cc1ncc(CSSCc2cnc(C)c(O)c2CO)c(CO)c1O [Pyrithioxin (dihydrochloride)]
NUMERIC_READOUT: 0.9622
//
MOLECULE: CCOc1ccccc1C(N)=O [2-Ethoxybenzamide]
NUMERIC_READOUT: 1.119
//
MOLECULE: OCc1ccccc1 [Benzyl alcohol]
NUMERIC_READOUT: 0.8765

Data request, read-out Cholesterol-free media + simvastatin (0.04 μM), for Cc1ncc(CO)c(CO)c1O.O=C1CC[C@@H](C(=O)O)N1 [Metadoxine]
1.163

Also, COc1ccc([C@@H]2Sc3ccccc3N(CCN(C)C)C(=O)[C@@H]2OC(C)=O)cc1 [Diltiazem (hydrochloride)] please.
1.317

// query: C[S+](CC[C@H](N)C(=O)[O-])C[C@H]1O[C@@H](n2cnc3c(N)ncnc32)[C@H](O)[C@@H]1O.Cc1ccc(S(=O)(=O)O)cc1.O=S(=O)(O)O.O=S(=O)(O)O (stereo partly shown)
1.19

* * *

Test system: NCI-H292 lung cancer cells
Experiment: FDA drug screening, complete media vs cholesterol-free media without statin (TABLE 1)
Type: cell-based, human
Conditions: NCI-H292 cells, FDA drug library screen, cholesterol-free media without statin
Quick list: Cholesterol-free per entry.
Keep it simple and answer with nothing but the number.

COMPOUND: c1ccc2c(c1)Nc1ccccc1S2
Cholesterol-free: 1.108
--
COMPOUND: O=C(O)CCCCC1CCSS1 (stereo not drawn)
Cholesterol-free: 0.8613
--
COMPOUND: CNC[C@H](O)c1ccc(O)c(O)c1.O=C(O)C(O)C(O)C(=O)O [L-Epinephrine (Bitartrate)]
Cholesterol-free: 1.247

State its Cholesterol-free on NCI-H292 lung cancer cells: CCCCC(=O)N(Cc1ccc(-c2ccccc2-c2nnn[nH]2)cc1)[C@H](C(=O)O)C(C)C
0.8984

Note, next up: C[C@H](O)[C@H](O)[C@H]1CNc2nc(N)[nH]c(=O)c2N1 [Tetrahydrobiopterin]
0.9498

Query Nc1ccc(S(=O)(=O)Nc2ccnn2-c2ccccc2)cc1 next
1.174

* * *

Test system: NCI-H292 lung cancer cells
Assay: FDA drug screening, complete media vs cholesterol-free media with simvastatin (TABLE 2)
Type: cell-based, human
Conditions: complete media minus cholesterol-free media + simvastatin; >0 enhanced anti-cancer activity, about 0 neutral, <0 antagonist
Counter-ions that a name gives are not always drawn.
PROPERTY_MEASURED: Difference
Answer as a number with no unit attached.

COMPOUND: NCC(CC(=O)O)c1ccc(Cl)cc1 (stereo not drawn) [Baclofen]
Difference: 0.10

COMPOUND: NC[C@H]1O[C@H](O[C@H]2[C@H](O)[C@@H](O[C@H]3O[C@H](CO)[C@@H](O)[C@H](N)[C@H]3O)[C@H](N)C[C@@H]2N)[C@H](N)C[C@@H]1O [Tobramycin]
Difference: 0.04

For the next question, use this compound.
Using the record for CN(C)CCC=C1c2ccccc2C(C)(C)c2ccccc21 [Melitracen (hydrochloride)] , report its Difference.
0.26
